Hello, the source for this data is ChEMBL document CHEMBL3870359, in case you need it.

# system-under-test: Coagulation factor VII/tissue factor (Homo sapiens)
# Sequence (P08709 61-212 limits assumed): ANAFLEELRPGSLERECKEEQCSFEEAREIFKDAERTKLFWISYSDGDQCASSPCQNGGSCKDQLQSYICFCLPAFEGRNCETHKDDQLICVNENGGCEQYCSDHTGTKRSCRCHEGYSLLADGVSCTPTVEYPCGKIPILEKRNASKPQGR
# Sequence (P08709 213-466 limits assumed): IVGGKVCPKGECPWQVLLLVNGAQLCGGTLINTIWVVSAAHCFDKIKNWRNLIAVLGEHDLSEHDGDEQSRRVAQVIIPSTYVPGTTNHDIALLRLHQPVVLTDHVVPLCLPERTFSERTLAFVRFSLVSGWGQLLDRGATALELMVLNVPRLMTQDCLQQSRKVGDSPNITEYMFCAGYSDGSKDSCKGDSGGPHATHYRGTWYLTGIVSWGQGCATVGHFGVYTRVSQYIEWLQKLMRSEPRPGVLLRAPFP
# Sequence (P13726 33-295 partner limits assumed): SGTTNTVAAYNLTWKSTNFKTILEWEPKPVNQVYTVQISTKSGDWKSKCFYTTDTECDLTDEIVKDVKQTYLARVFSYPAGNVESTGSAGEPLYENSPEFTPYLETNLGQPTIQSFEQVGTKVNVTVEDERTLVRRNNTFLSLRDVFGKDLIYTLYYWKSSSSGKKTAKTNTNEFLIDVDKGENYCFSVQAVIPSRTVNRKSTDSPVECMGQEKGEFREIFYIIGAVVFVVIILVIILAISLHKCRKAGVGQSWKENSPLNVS
# method-notes: Inhibition of recombinant human factor-7a/TF using S2288 as substrate measured after 60 mins at 37 degC
# Assay type: protein-complex assay
pKi: −log10 of the molar value.
endpoint: pKi

Use the examples below as a reference point.
{"columns": ["record-smiles", "endpoint", "reported-value"],
 "data": [
  ["COc1c(F)cc2cc1CCC(=O)Nc1ccc(S(=O)(=O)C3CC3)c(c1)CN(C)C(=O)[C@@H]2Nc1ccc2c(N)ncc(F)c2c1", "pKi", 6.39],
  ["COc1ccc2cc1CCC(=O)Nc1ccc(S(=O)(=O)C3CC3)c(c1)CN(C)C(=O)[C@@H]2Nc1ccc2c(N)ncc(F)c2c1", "pKi", 7.74],
  ["CN1CCc2cccc(c2)[C@@H](Nc2ccc3c(N)ncc(F)c3c2)C(=O)N(C)Cc2cc(ccc2S(=O)(=O)C2CC2)NC1=O", "pKi", 6.70]
]}

P. C[C@H]1CC(=O)Nc2ccc(S(=O)(=O)C3CC3)c(c2)CN(C)C(=O)[C@H](Nc2ccc3c(N)ncc(F)c3c2)c2ccc(OCC(F)F)c1c2
Q. CN1Cc2cc(ccc2S(=O)(=O)C2CC2)NC(=O)CCc2cc(ccc2F)[C@@H](Nc2ccc3c(N)ncc(F)c3c2)C1=O
Input line: I'm curious whether P or Q has the smaller pKi number. Which is it? Give the chosen item's label as your response.
Output line: Q
